TARGET_SYSTEM: T1, Notch2NRR (Notch2 NRR domain) (human, UniProt Q04721 1423-1677, biotin on the N-terminal Avi tag (enzymatic))
T1 construct: also called NRR protein; not shown: Avi tag, N-terminal, kept
T1 sequence (looked up): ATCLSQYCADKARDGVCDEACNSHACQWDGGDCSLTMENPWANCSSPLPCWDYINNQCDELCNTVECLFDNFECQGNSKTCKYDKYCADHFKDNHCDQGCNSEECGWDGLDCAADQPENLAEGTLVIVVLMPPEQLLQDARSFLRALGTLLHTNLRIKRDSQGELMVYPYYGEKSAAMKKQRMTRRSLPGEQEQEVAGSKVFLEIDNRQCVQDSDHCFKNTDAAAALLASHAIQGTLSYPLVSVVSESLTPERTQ
METHOD_DESCRIPTION: ELISA
RUN_CONDITIONS: one partner purified
ASSAY_ENDPOINT: ELISA

>  <BINDER>
GCGQQRWGGWPLCKQDSDCLAGCVCGPNGFCG (designed binder) [N2N-EET-45 displayed on M13 phage]

>  <EXPERIMENTAL_RESULT>
3.5

$$$$
>  <BINDER>
GCQQRRWGGWQQCKQDSDCLAGCVCGPNGFCG (designed binder) [N2N-EET-33 displayed on M13 phage]

>  <EXPERIMENTAL_RESULT>
3.6

$$$$
>  <BINDER>
GCMPRYGGWHCKQDSDCLAGCVCGPNGFCG (designed binder) [N2N-EET-63 displayed on M13 phage]

>  <EXPERIMENTAL_RESULT>
1.5

$$$$
>  <BINDER>
GCRPRFKGWTCKQDSDCLAGCVCGPNGFCG (designed binder) [N2N-EET-n3 displayed on M13 phage]

>  <EXPERIMENTAL_RESULT>
2.1

$$$$
>  <BINDER>
GCGQKRMGGWQWCKQDSDCLAGCVCGPNGFCG (designed binder) [N2N-EET-n13 displayed on M13 phage]

>  <EXPERIMENTAL_RESULT>
3.4

$$$$
>  <BINDER>
GCRPRWGGWHCKQDSDCLAGCVCGPNGFCG (designed binder) [N2N-EET-57 displayed on M13 phage]

>  <EXPERIMENTAL_RESULT>
3.8

$$$$
